Quick list: Kd per entry.
# Measured On: T1, truncated cTfR1 of SEQ ID NO:123 (cynomolgus monkey, UniProt Q5RDH6 122-760 (Pongo abelii entry))
# T1 construct: also called cynomolgus TfR1
# T1 chain: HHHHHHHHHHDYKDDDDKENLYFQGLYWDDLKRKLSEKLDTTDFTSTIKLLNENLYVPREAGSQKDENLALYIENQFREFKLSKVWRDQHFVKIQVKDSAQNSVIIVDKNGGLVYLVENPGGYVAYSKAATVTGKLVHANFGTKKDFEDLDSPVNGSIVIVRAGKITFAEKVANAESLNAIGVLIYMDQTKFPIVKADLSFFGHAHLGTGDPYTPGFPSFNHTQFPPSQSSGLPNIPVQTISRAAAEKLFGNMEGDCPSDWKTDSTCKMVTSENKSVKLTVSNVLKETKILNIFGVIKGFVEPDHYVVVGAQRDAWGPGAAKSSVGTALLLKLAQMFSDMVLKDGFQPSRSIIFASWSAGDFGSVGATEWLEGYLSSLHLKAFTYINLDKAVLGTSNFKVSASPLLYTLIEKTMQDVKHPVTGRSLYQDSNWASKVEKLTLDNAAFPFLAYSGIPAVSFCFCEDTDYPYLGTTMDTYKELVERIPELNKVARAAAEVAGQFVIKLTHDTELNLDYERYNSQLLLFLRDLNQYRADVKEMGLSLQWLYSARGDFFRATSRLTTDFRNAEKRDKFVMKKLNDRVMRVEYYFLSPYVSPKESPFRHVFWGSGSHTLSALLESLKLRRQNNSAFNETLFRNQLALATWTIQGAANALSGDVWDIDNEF
# Test Method Notes: SPR, FLAG-captured TfR1, scFv injected, 1:1 fit
Property Measured: Kd (nM)

>  <Binder>
h26D3 HC6 DS T91S T120K (scFv, also called h26D3 DS T91S T120K) scFv: HHHHHHGGGGSGGGGSGGGGSGGGGSDIQMTQSPSSVSASVGDRVTITCKSSQSLLYSTNQKNYLAWYQQKPGKAPKLLIYWASTRESGVPSRFSGSGSGTDFTLTISSLQPEDFATYYCQQYFIYPRTFGCGTKVEIKGGGGSGGGGSGGGGSGGGGSEVQLVQSGAEVKKPGSSVKVSCKASGYIFTDYNMDWVRQAPGQCLEWIGDINPDADTTSYNEKFKGRATLTVDKSTSTAYMELSSLRSEDSAVYYCARGGYSGSSYYHPMDYWGQGTLVKVSS

>  <Result Unit>
nM

>  <Recorded Value>
245

$$$$
>  <Binder>
h26D3 HC6 DS T120K (scFv, also called h26D3 DS T120K) scFv: HHHHHHGGGGSGGGGSGGGGSGGGGSDIQMTQSPSSVSASVGDRVTITCKSSQSLLYSTNQKNYLAWYQQKPGKAPKLLIYWASTRESGVPSRFSGSGSGTDFTLTISSLQPEDFATYYCQQYFIYPRTFGCGTKVEIKGGGGSGGGGSGGGGSGGGGSEVQLVQSGAEVKKPGSSVKVSCKASGYIFTDYNMDWVRQAPGQCLEWIGDINPDADTTSYNEKFKGRATLTVDKSTSTAYMELSSLRSEDTAVYYCARGGYSGSSYYHPMDYWGQGTLVKVSS

>  <Result Unit>
nM

>  <Recorded Value>
197

$$$$
>  <Binder>
h26D3 HC6 DS T91A (scFv, also called h26D3 DS T91A) scFv: HHHHHHGGGGSGGGGSGGGGSGGGGSDIQMTQSPSSVSASVGDRVTITCKSSQSLLYSTNQKNYLAWYQQKPGKAPKLLIYWASTRESGVPSRFSGSGSGTDFTLTISSLQPEDFATYYCQQYFIYPRTFGCGTKVEIKGGGGSGGGGSGGGGSGGGGSEVQLVQSGAEVKKPGSSVKVSCKASGYIFTDYNMDWVRQAPGQCLEWIGDINPDADTTSYNEKFKGRATLTVDKSTSTAYMELSSLRSEDAAVYYCARGGYSGSSYYHPMDYWGQGTLVTVSS

>  <Result Unit>
nM

>  <Recorded Value>
240

$$$$
>  <Binder>
h26D3 HC6 DS S16E (scFv, also called h26D3 DS S16E) scFv: HHHHHHGGGGSGGGGSGGGGSGGGGSDIQMTQSPSSVSASVGDRVTITCKSSQSLLYSTNQKNYLAWYQQKPGKAPKLLIYWASTRESGVPSRFSGSGSGTDFTLTISSLQPEDFATYYCQQYFIYPRTFGCGTKVEIKGGGGSGGGGSGGGGSGGGGSEVQLVQSGAEVKKPGESVKVSCKASGYIFTDYNMDWVRQAPGQCLEWIGDINPDADTTSYNEKFKGRATLTVDKSTSTAYMELSSLRSEDTAVYYCARGGYSGSSYYHPMDYWGQGTLVTVSS

>  <Result Unit>
nM

>  <Recorded Value>
277

$$$$
>  <Binder>
h26D3 HC6 DS T91S S122K (scFv, also called h26D3 DS T91S S122K) scFv: HHHHHHGGGGSGGGGSGGGGSGGGGSDIQMTQSPSSVSASVGDRVTITCKSSQSLLYSTNQKNYLAWYQQKPGKAPKLLIYWASTRESGVPSRFSGSGSGTDFTLTISSLQPEDFATYYCQQYFIYPRTFGCGTKVEIKGGGGSGGGGSGGGGSGGGGSEVQLVQSGAEVKKPGSSVKVSCKASGYIFTDYNMDWVRQAPGQCLEWIGDINPDADTTSYNEKFKGRATLTVDKSTSTAYMELSSLRSEDSAVYYCARGGYSGSSYYHPMDYWGQGTLVTVKS

>  <Result Unit>
nM

>  <Recorded Value>
221

$$$$
